target: T1, Soluble CTLA-4-Ig (human, UniProt P16410 36-161, FITC-conjugated in the two-colour FACS assays; unlabelled and detected with FITC goat anti-human IgG in the concentration-dependent assay); test: two-colour FACS profile on transfected cells; score of preference for CTLA-4-Ig over CD28-Ig vs WT hB7-1
T1 construct: extracellular domain; Bought from R&D Systems; also called sCTLA-4-Ig; CTLA-4-Ig Fc; not shown: Fc portion of human IgG1
T1 sequence (P16410 36-161): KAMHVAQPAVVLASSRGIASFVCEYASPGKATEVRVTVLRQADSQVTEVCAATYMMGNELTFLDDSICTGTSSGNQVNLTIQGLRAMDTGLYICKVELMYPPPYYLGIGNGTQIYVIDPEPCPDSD
reported.endpoint: Binding Score
Numbers only.

binder	measurement
Round 2 CTLA4BP-5x2-7b (ligand) VIHVTKEVKEVATLSCGHNVSVEELAQTRIHWQKEKKMVLTMMSGDMNIWPEYKNRTIFDITNNLSIVILALRPSDEGTYECVVLKYEKDAFKREHLAEVTLSVKAGFPTPSITDFEIPPSNIRRIICSTSGGFPEPHLSWLENGEELNAINTTVSQDPGTELYTVSSKLDFNMTANHSFVCLIKYGHLRVNQTFNWNTPKQEHFPDNLLPSWAITLISANGIFVICCLTYCFAPRCRERRRNERLRRESVRPV	1
Round 2 CTLA4BP 5x6-f6 (ligand) VIHVTKEVKEVATLSCGHNVSVEELAQTPIYWQKEKKMVLTMMSGDMNIWPEYKNRTIFDITNNLSIVILALRPSDEGTYECVVLKYEKDAFKREHLAEVMLSVKADFPTPSITDFEIPPSNIRRIICSTSGGFPEPHLFWLENGEELNAINTTVSQDPETELYTVSSKLDFNMTTNRSFVCLIKYGHLRVNQTFNWNTPKQEHFPDNLLPSWAITLISANGIFVICCLTYRFAPRCRERRRNERLRRESVCPV	1
Round 2 CTLA4BP-5x2-8c (ligand) VIHMTKEVKEVATLSCGHNVSVEELAQTRIYWQKEKKMVLTMMSGDMNIWPEYKNRTIFDITNNLSIVILALRPSDEGTYECVVLKYEKDAFKQEHLAEVMLSVKADFPTPSITDFEIPPSNIRRIICSTSGGFPEPHLFWLENGEELNAINTTVSQDPETELYAVSSKLDFNMTTNHSFVCLIKYGHLRVNQTFNWNTPKQEHFPDNLLPSWAITLISANGIFVICCLTYCFAPRCRERRRNERLRRESVHPV	2
Round 2 CTLA4BP 5x3-e8 (ligand) VIHVTKEVKEVATLSCGHNVSVEELAQTRIYWQKEKKMVLTMMSGDMNIWPEYKNRTIFDITNNLSIVILALRPSDEGTYECVVLEYEKDAFKREHLAEVTLSVKADFPTPSISDFEIPTSNIRRIICSTSGGFPEPHLFWLENGEELNAINTTVSQDPETELYTVSSKLDFNMTANHSFVCLIKYGHLRVNQTFNWNTPKQEHFPDNLLPSWAITLISVNGIFVICCLTYCFAPGCRERRRNERLRRESVCPV	1
Round 2 CTLA4 A-B11-5 (ligand) ITPKSATKRVKETVMLSCDYSTSTEELTSLRIYWQKDSKMVLAILPGKVQVWPEYKNRTITDMNDNPRIVILALRLSDSGTYTCVIQKPDLKGAYKLEHLTSVRLMIRADFPVPTINDLGNPSPNIRRLICSTSGGFPRPHLYWLENGEELNATNTTLSQDPETKLYMISSELDFNMTSNHSFLCLVKYGDLTVSQTFYWQESKPTPSANQHLTWTIIIPVSAFGISVIIAVILTCLTCRNAAIRRQRRENEVEMQSCSQSP	1

Hi! Can you tell me Binding Score for each of these binders?
1. Round 2 CTLA4BP-5x2-4c (ligand) VIHVTKEVKEVATLSCGLNVSVEELAQTRIYWQKEKKMVLTMMSGDMNIWPEYKNRTIFDITNNLSIVILALRPSDEGTYECVVLEYEKDAFKREHLAEVMLSVKADFPTPSISDFEIPPSNIRRIICSTSGGFPEPHLSWLENGEELNGINTTVSQDPETELYTVSSKLDFNMTTNRSFVCLIKYGHLRVNQTFNWNTPKQEHFPDNLLPSWAITLISVNGIFVICCLTYCFAPRCRERRRNERLRRESVHPV
2. Round 2 CTLA4BP 2x2-f1 (ligand) VIHVTKEVKEVATLSCGHNVSVEELAQTRIHWQKEKKMVLTMMSGDMNIWPEYKNRTIFDITNNLSIVILALRLSDEGTYECVVLKYEKDAFKREHLAEVTLSVKADFPTPSISDFEIPTSNIRRIICSTSGGFPEPHLFWLENGEELNAINTTASQDPETELYTVSSKLDFNMTTNRSFVCLIKYGHLRVNQTFNWNTPKQEHFPDNLLPSWAITLISVNGIFVICCLTYCFAPRCRERRRNERLRRESVRPV
3. Round 2 CTLA4BP 5x5-h12 (ligand) VIHVTKKVKEVATLSCGHNVSVEELAQTRIHWQKEKKMVLTMMSGDMNIWPEYKNRTIFDITNNLSIVILALRPSDEGTYECVVLKYEKDAFKREHLAEVMLSVKADFPTPSISDFEIPPSNIRRIICSTSGGFPEPHLSWLENGEELNAINTTVSQDPGTELYTVSSKLDFNMTTDRSFVCLIKYGHLRVNQTFNWNTPKQEHFPDNLLPSWAITLISVNGIFVICCLTYCFAPRCRERRRNGRLRRESVRPV
4. Round 2 CTLA4BP 5x2-e12 (ligand) VIHVTKEVKEVATLSCGHNVSVEELAQTRIHWQKEKKMVLTMMSGGMNIWPEYKNRTIFDITNNLSIVILALRPSDEGTYECVVLKYEKDAFKREHLAEVTLSVKADFPTPSISDFEIPTSNIRRIICSTSGGFPEPHLSWLENGEELNAISTTVSQDPGTELYAVSSKLDFNMTTNRSFVCLIKYGHLRVNQTFNWNTTKQEHFPDNLLPSWAITLISVNGIFVICCLTYCFAPRCRERRRNERLRRESVRPV

1. 1
2. 1
3. 1
4. 0
